test: in vitro; assay type: in vitro ADME; conditions: human, 120 min, 0.5 μM
Below: a set of entries, each annotated with reported Residual rate (%) 120 min.
MEASUREMENT_NAME: Residual rate (%) 120 min

INSERT INTO measurements (compound, result) VALUES
  ('C=CC(=O)N1C[C@H](C)N(c2nc(=O)n(-c3c(SC)ccnc3C(C)C)c3nc(-c4c(N)ccc(Cl)c4F)c(Cl)cc23)C[C@H]1C (single isomer, unassigned)', '87.22%'),
  ('CC(C)[N+](C)(CCOC(=O)C1c2ccccc2Oc2ccccc21)C(C)C [Propantheline, reference compound]', '0.72%'),
  ('C=CC(=O)N1C[C@H](C)N(c2nc(=O)n(-c3c(SC)ccnc3C(C)C)c3nc(-c4c(O)cccc4F)c(Cl)cc23)C[C@H]1C (single isomer, unassigned)', '78.85%'),
  ('C=CC(=O)N1CCN(c2nc(=O)n(-c3c(C)ccnc3C(C)C)c3nc(-c4c(O)cccc4F)c(F)cc23)[C@@H](C)C1 [AMG 510, reference compound]', '64.44%');

---

assay: in vivo; settings: male, Balb/c, mouse, po, 10 mg/kg
// reported half-life for each item listed
MEASUREMENT_NAME: half-life (min)

INSERT INTO measurements (compound, result) VALUES
  ('C=CC(=O)N1C[C@H](C)N(c2nc(=O)n(-c3c(SC)ccnc3C(C)C)c3nc(-c4c(O)cccc4F)c(F)cc23)C[C@H]1C (single isomer, unassigned) [Embodiment 114-1]', 36),
  ('C=CC(=O)N1C[C@H](C)N(c2nc(=O)n(-c3c(SC)ccnc3C(C)C)c3nc(-c4c(O)cccc4F)c(F)cc23)C[C@H]1C [Embodiment 114]', 36),
  ('C=CC(=O)N1C[C@H](C)N(c2nc(=O)n(-c3c(SC)ccnc3C(C)C)c3nc(-c4c(N)ccc(Cl)c4F)c(Cl)cc23)C[C@H]1C (single isomer, unassigned)', 60);

---

target: human KRAS G12C protein (Homo sapiens, UniProt P01116, G12C); construct: purchased Beijing SinoBiological Co., Ltd. 12259-H07E2; assay: Thermal shift: melting temperature of KRAS G12C protein; format: binding; settings: compound 10 μM; Tm minus Tm of DMSO solvent control
ΔTm at 10 µM vs 9 °C: at or above is T, below is F.

INSERT INTO measurements (molecule, classification) VALUES
  ('C=CC(=O)N1[C@H](C)CN(c2nc(=O)n(-c3c(SC)ccnc3C(C)C)c3nc(-c4c(O)cccc4F)c(F)cc23)C[C@@H]1C [Embodiment 115]', 'F'),
  ('C=CC(=O)N1C[C@H](C)N(c2nc(=O)n(-c3c(SC)ccnc3C(C)C)c3nc(-c4c(N)ccc(Cl)c4F)c(Cl)cc23)C[C@H]1C [Embodiment 165]', 'T'),
  ('C=CC(=O)N1CCN(c2nc(=O)n(-c3c(C)ccnc3C(C)C)c3nc(-c4c(F)cccc4SC)c(F)cc23)[C@@H](C)C1 [Embodiment 75]', 'T'),
  ('C=CC(=O)N1CCN(c2nc(=O)n(-c3c(SC)ccnc3C(C)C)c3nc(-c4c(N)cccc4F)c(F)cc23)[C@@H](C)C1 [Embodiment 134]', 'T'),
  ('C=CC(=O)N1CCN(c2nc(=O)n(-c3c(C)ccnc3C(C)C)c3nc(-c4cccnc4SC)c(F)cc23)[C@@H](C)C1 [Embodiment 136]', 'F');
